Target: UniProt P31391
Assay: Inhibition of forskolin stimulated cAMP in CHO-K1 cells overexpressing SSTR4
Format: cell-based
Conditions: read-out: SSTR4 Activity pEC50 (converted)
Recorded log10 of EC50, one value per entry.
All values: base-10 log of EC50 in nM.

Some solved entries appear below for comparison.
MOLECULE: C[C@@H]1CN(C)CC[C@H]1NC(=O)C(F)(F)COc1ncccc1OC(F)(F)F (racemic)
log10 of EC50: 1.50

MOLECULE: CN1CCC(NC(=O)C(C)(C)COc2cccnc2C(F)(F)F)CC1
log10 of EC50: 1.90

MOLECULE: CN1C[C@@H](NC(=O)C(C)(C)COc2ncccc2C2CC2)[C@H](c2ccc(Cl)cc2)C1 (relative stereo)
log10 of EC50: 1.30

MOLECULE: C[C@H]1C[C@@H](NC(=O)C(F)(F)COc2ncccc2C(F)(F)F)CCN1C (racemic)
log10 of EC50: 1.90

MOLECULE: CC[C@@H]1CN(C)CC[C@H]1NC(=O)C(C)(C)COc1ncccc1OC(F)(F)F (racemic)
log10 of EC50: -0.20

MOLECULE: C[C@@H]1CN(C)CC[C@@H]1NC(=O)C(C)(C)COc1ncccc1C(F)(F)F (racemic)
log10 of EC50: 2.10

MOLECULE: CC(C)[C@@H]1CN(C)CC[C@H]1NC(=O)C(C)(C)COc1ncccc1C(F)(F)F (relative stereo)
log10 of EC50: -0.10

MOLECULE: CCc1ccccc1OCC(C)(C)C(=O)N[C@@H]1CN(C)C[C@H]1OC (relative stereo)
log10 of EC50: 2.30

Proceeding to the next molecule to report its log10 of EC50.
query: Determine its reported log10 of EC50: Cc1ccc([C@@H]2CN(C)C[C@H]2NC(=O)C(C)(C)COc2ncccc2C(F)(F)F)cn1 (racemic)
result: 1.20

* * *

Target: SSTR1 (Homo sapiens (Human))
Sequence (P30872 whole entry): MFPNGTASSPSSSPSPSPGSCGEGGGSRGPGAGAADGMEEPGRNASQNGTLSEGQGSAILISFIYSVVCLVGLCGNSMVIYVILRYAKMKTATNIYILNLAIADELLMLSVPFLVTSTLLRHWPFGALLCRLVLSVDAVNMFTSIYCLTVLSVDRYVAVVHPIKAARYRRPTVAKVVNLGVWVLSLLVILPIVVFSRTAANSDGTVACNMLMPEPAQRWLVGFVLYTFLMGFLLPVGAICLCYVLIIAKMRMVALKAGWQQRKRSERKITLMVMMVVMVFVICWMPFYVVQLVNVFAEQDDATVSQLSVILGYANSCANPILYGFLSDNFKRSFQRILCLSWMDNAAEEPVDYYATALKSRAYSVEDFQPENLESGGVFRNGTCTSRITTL
Assay: SSTR1 I-125 somatostatin competition binding assay for selectivity versus SSTR4 (membranes from CHO-K1 cells overexpressing SSTR1);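 also: Filter-based radioligand binding, bound label counted by scintillation after 60 min incubation at room temperature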
Details: competition with I-125 labeled somatostatin, CHO-K1 SSTR1 membranes
RESULT TYPE: SSTR1 Binding pIC50
Write the number on its own, no unit after it.

Here are 4 compounds together with their reported answers.
COMPOUND: C[C@@H]1C[C@H](NC(=O)C(F)(F)COc2ncccc2OC(F)(F)F)CCN1 [Example 212]
READOUT VALUE: 4.5

COMPOUND: Cc1ccccc1[C@@H]1CNCC[C@@H]1N(C)C(=O)C(C)(C)COc1ncccc1C(F)(F)F (relative stereo) [Example 156]
READOUT VALUE: 4.6

COMPOUND: CN1CCC(NC(=O)C(C)(C)COc2ccccc2C2CC2)CC1 [Example 70]
READOUT VALUE: 5.5

COMPOUND: CN1CC[C@@H](NC(=O)C(C)(C)COc2ccccc2Cl)C1 [Example 68]
READOUT VALUE: 4.6

query: Using known records, supply SSTR1 Binding pIC50 for CN1CCC(NC(=O)C(C)(C)COc2ncccc2C(F)(F)F)C2(CC2)C1 (centres unmarked) [Example 114]
result: 4.6

query: Identify measured SSTR1 Binding pIC50 corresponding to Cc1nn(C)cc1[C@@H]1CN(C)C[C@H]1NC(=O)C(C)(C)COc1ncccc1C(F)(F)F (relative stereo) [Example 25]
result: 6.4

query: Return SSTR1 Binding pIC50 (reported value) for this compound: CN1CC[C@H](NC(=O)C(C)(C)COc2ncccc2C(F)(F)F)[C@H](c2ccccc2)C1 (relative stereo) [Example 163]
result: 5.2

query: Give recorded SSTR1 Binding pIC50. CN1CCC(NC(=O)C(C)(C)COc2ncccc2C2CC2)CC1 [Example 47]
result: 4.8

* * *

Listed next: entries and their corresponding SSTR4 Activity pEC50.
Target: SSTR4 (Homo sapiens (Human))
Assay: Inhibition of forskolin stimulated cAMP in CHO-K1 cells overexpressing SSTR4
Assay type: cell-based
Field format: numeric only.

The following compounds have reported results that may help.
COMPOUND: Cc1cccnc1OCC(C)(C)C(=O)N[C@H]1CCN(C)C[C@@H]1C [Example 143]
SSTR4 Activity pEC50: 7.9
--
COMPOUND: Cc1cc(C2CC2)cnc1OCC(C)(C)C(=O)NC1CCN(C)CC1 [Example 8]
SSTR4 Activity pEC50: 7.0
--
COMPOUND: CC[C@@H]1CN(C)CC[C@@H]1NC(=O)C(C)(C)COc1ncccc1C(F)(F)F (relative stereo) [Example 111]
SSTR4 Activity pEC50: 7.7

Field: next compound
query: Determine from records and report SSTR4 Activity pEC50 for CN1CCC(NC(=O)C(C)(C)COc2ccccc2C2CC2)CC1 [Example 70]
result: 8.4

* * *

Target: SSTR4 (Homo sapiens (Human), UniProt P31391)
Sequence (P31391 whole entry): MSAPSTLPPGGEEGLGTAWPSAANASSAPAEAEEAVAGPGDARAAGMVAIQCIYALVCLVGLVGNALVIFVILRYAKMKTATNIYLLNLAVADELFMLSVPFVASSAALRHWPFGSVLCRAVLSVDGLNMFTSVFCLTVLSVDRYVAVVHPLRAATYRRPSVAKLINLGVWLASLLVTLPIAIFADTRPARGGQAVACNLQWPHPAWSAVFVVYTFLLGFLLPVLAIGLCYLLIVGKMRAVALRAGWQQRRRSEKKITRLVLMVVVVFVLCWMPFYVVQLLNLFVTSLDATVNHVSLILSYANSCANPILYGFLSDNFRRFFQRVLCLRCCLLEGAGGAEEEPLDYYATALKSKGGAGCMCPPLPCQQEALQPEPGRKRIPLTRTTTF
Assay: Inhibition of forskolin stimulated cAMP in CHO-K1 cells overexpressing SSTR4
Type: cell-based
Given measured SSTR4 Activity pEC50, output met if it is greater than or equal to 8 and not met if not.

MOLECULE: CCc1nccnc1OCC(C)(C)C(=O)NC1CCN(C)CC1 [Example 87]
CLASS: not met

MOLECULE: CN1CC[C@@H](NC(=O)C(C)(C)COc2ccccc2Cl)C1 [Example 68]
CLASS: not met

MOLECULE: CCc1ccccc1OCC(C)(C)C(=O)NC1CCN(CC(=O)c2ccc(Cl)cc2)CC1 [Example 104]
CLASS: met

MOLECULE: Cc1c([C@@H]2CN(C)C[C@H]2NC(=O)C(C)(C)COc2ncccc2C2CC2)cnn1C (relative stereo) [Example 27]
CLASS: met

MOLECULE: CN1CCC(NC(=O)C(C)(C)COc2ncccc2OC(F)(F)F)CC1 [Example 92]
CLASS: not met

query: Quick check: does CN1C[C@@H](NC(=O)C(C)(C)COc2ncccc2C(F)(F)F)[C@H](c2cnn(C)c2)C1 (relative stereo) [Example 19] have SSTR4 Activity pEC50 greater than or equal to 8?
result: not met

query: # bool: SSTR4 Activity pEC50 of CN1CCC(NC(=O)C(C)(C)COc2ccccc2Cl)CC1 [Example 66] >= 8
result: not met

query: Given C[C@H]1CN(C)CC[C@@H]1NC(=O)C(C)(C)COc1ncccc1OC(F)(F)F [Example 107] , state whether its SSTR4 Activity pEC50 is at least 8.
result: met

query: Please indicate if the recorded SSTR4 Activity pEC50 for CN1CCC(NC(=O)C(C)(C)COc2ccc(C#N)cc2C(F)(F)F)CC1 [Example 73] meets or exceeds 8.
result: not met

* * *

Target: SSTR4 (Homo sapiens (Human), UniProt P31391)
Test: Inhibition of forskolin stimulated cAMP in CHO-K1 cells overexpressing SSTR4
Type: cell-based
Outcome label depends on SSTR4 Activity pEC50 relative to 8: at/above gives criterion met, below gives criterion not met.

Use these answered entries as a reference point.
COMPOUND: Cc1c(C#N)cccc1OCC(C)(C)C(=O)NC1CCN(C)CC1
CLASS: criterion not met
//
COMPOUND: Cc1cccnc1OCC(F)(F)C(=O)N[C@H]1CCNC[C@@H]1F
CLASS: criterion not met
//
COMPOUND: Cc1nn(C)cc1[C@@H]1CN(C)C[C@H]1NC(=O)C(C)(C)COc1ncccc1C1CC1 (relative stereo)
CLASS: criterion met
//
COMPOUND: C[C@H]1CNCC[C@@H]1NC(=O)C(C)(C)COc1ccccc1F
CLASS: criterion met
//
COMPOUND: CN1CC[C@@H](NC(=O)C(C)(C)COc2ccccc2C2CC2)C1
CLASS: criterion met

query: Given the entry CN1CCC(NC(=O)C(C)(C)COc2ncccc2C#N)CC1 , answer whether its SSTR4 Activity pEC50 meets or surpasses 8.
result: criterion not met

query: Determine whether measured SSTR4 Activity pEC50 meets or exceeds 8 for CN1CC[C@H](NC(=O)C(C)(C)COc2ncccc2C(F)(F)F)[C@H](c2ccccc2)C1 (relative stereo)
result: criterion not met

* * *

Measured SSTR4 Binding pIC50 by item
Target: SSTR4 (Homo sapiens (Human), UniProt P31391)
Test: SSTR4 I-125 somatostatin competition binding assay (membranes from CHO-K1 cells overexpressing SSTR4)
Conditions: competition with I-125 labeled somatostatin

MOLECULE: CN1CC[C@H](NC(=O)C(C)(C)COc2ncccc2C(F)(F)F)[C@@H](F)C1
SSTR4 Binding pIC50: 6.7
//
MOLECULE: C[C@H]1CNCC[C@@H]1NC(=O)C(F)(F)COc1ccccc1Cl
SSTR4 Binding pIC50: 7.7
//
MOLECULE: CN1CCC(NC(=O)C(C)(C)COc2ccccc2C(F)(F)F)CC1
SSTR4 Binding pIC50: 7.0

query: Tell us which SSTR4 Binding pIC50 value is on record for CN1CC[C@H](NC(=O)C(C)(C)COc2ncccc2C(F)(F)F)[C@H](c2ccccc2)C1 (relative stereo)
result: 6.1

query: Recall and state the measured SSTR4 Binding pIC50 for Cc1cccnc1OCC(C)(C)C(=O)N[C@H]1CCN(C)C[C@@H]1C .
result: 6.9

query: Identify measured SSTR4 Binding pIC50 corresponding to C[C@@H]1C[C@H](NC(=O)C(C)(C)COc2ncccc2OC(F)(F)F)CCN1C
result: 7.4

query: Identify measured SSTR4 Binding pIC50 corresponding to CN1CC[C@@H](NC(=O)C(C)(C)COc2ccccc2Cl)C1
result: 6.8

query: Read off the recorded SSTR4 Binding pIC50 for CC[C@@H]1CN(C)CC[C@H]1NC(=O)C(C)(C)COc1ncccc1C(F)(F)F (single isomer, unassigned)
result: 8.0

query: Using known records, supply SSTR4 Binding pIC50 for CN1CCC(NC(=O)C(C)(C)COc2ncccc2C2CC2)CC1
result: 7.1

query: Let me know recorded SSTR4 Binding pIC50 for CCc1ccccc1OCC(C)(C)C(=O)NC1CCN(C)CC1 , thanks.
result: 7.1

query: Respond only with SSTR4 Binding pIC50 recorded for Cc1nn(C)cc1[C@@H]1CN(C)C[C@H]1NC(=O)C(C)(C)COc1ncccc1C(F)(F)F (relative stereo)
result: 7.0

query: For the molecule Cc1c([C@@H]2CN(C)C[C@H]2NC(=O)C(C)(C)COc2ncccc2C(F)(F)F)cnn1C (relative stereo) , give its measured SSTR4 Binding pIC50 value.
result: 7.7

query: Answer with reported SSTR4 Binding pIC50 of C[C@@H]1C[C@H](NC(=O)C(F)(F)COc2ncccc2C2CC2)CCN1
result: 7.2

query: Using the record for CN1CC[C@@H](NC(=O)C(C)(C)COc2ccccc2C2CC2)C1 , state its measured SSTR4 Binding pIC50.
result: 7.3

query: Using known records, supply SSTR4 Binding pIC50 for Cc1cccnc1OCC(C)(C)C(=O)N[C@@H]1CN(C)C[C@H]1c1cn(C)nc1C (relative stereo)
result: 6.6

query: Look up and state reported SSTR4 Binding pIC50 for C[C@@H]1CN(C)C[C@H]1NC(=O)C(C)(C)COc1ncccc1OC(F)(F)F (relative stereo)
result: 6.5

query: Give me measured SSTR4 Binding pIC50, please, for this molecule: CC[C@@H]1CN(C)CC[C@@H]1NC(=O)C(C)(C)COc1ncccc1C(F)(F)F (relative stereo)
result: 6.7

query: Give recorded SSTR4 Binding pIC50. CN1CC[C@@H](NC(=O)C(C)(C)COc2ccccc2C(F)(F)F)C1
result: 7.0

query: Please supply the value of reported SSTR4 Binding pIC50 for the item C[C@H]1CNCC[C@@H]1NC(=O)C(F)(F)COc1ncccc1OC(F)(F)F
result: 7.6
